These entries and their values trace back to ChEMBL document CHEMBL3797187.

As shown below, each of these compounds has a reported pIC50 value.
Biological target: Fatty-acid amide hydrolase 1 (Homo sapiens, UniProt O00519)
Test: Inhibition of human recombinant FAAH expressed in sf21 cells using AMC-AA as substrate preincubated for 15 mins followed by substrate addition measured after 2 hrs by spectrophotometric analysis
In textbook form, pIC50 equals minus log to base ten of the concentration in mol/L.

COc1cccc(-c2ccc(-c3cc(C(=O)NC45CC6CC(CC(C6)C4)C5)no3)cc2)c1; 6.14
CC(=O)c1cccc(-c2ccc(-c3cc(C(=O)NC45CC6CC(CC(C6)C4)C5)no3)cc2)c1; 6.23
N#Cc1cccc(-c2ccc(-c3cc(C(=O)NC45CC6CC(CC(C6)C4)C5)no3)cc2)c1; 6.62
CN1CCN(Cc2cccc(-c3ccc(-c4cc(C(=O)NC56CC7CC(CC(C7)C5)C6)no4)cc3)c2)CC1; 5.95

Now look at this entry.
Ask | For the compound O=C(NC12CC3CC(CC(C3)C1)C2)c1cc(-c2ccc(-c3cccc(CN4CCOCC4)c3)cc2)on1 , what pIC50 is on record?
Reply | 6.08

* * *

Molecular target: Fatty-acid amide hydrolase 1 (Homo sapiens) (UniProt O00519)
Sequence (O00519 whole entry): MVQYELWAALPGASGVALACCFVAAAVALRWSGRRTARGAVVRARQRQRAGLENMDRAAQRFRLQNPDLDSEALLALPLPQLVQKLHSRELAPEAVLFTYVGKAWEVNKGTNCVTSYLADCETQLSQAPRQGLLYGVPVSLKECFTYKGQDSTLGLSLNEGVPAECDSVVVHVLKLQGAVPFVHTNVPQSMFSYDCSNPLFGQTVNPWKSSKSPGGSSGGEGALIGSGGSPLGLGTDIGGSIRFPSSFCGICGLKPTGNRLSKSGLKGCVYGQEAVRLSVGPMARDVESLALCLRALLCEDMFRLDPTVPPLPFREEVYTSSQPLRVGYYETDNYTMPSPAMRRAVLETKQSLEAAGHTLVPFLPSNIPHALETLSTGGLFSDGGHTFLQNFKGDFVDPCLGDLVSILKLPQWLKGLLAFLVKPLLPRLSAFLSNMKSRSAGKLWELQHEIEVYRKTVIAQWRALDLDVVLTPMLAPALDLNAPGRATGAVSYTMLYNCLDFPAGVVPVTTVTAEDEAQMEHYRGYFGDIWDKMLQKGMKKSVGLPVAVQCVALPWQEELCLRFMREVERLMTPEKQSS
Assay: Inhibition of human recombinant FAAH expressed in sf21 cells using AMC-AA as substrate at 10 uM preincubated for 15 mins followed by substrate addition measured after 2 hrs by spectrophotometric analysis relative to control
Assign a class from recorded inhibition; defined classes: class A: < 20%; class B: ≥ 20% and < 50%; class C: ≥ 50%

// below: answered molecules
O=C(NC12CC3CC(CC(C3)C1)C2)c1cc(-c2ccc(-c3ccccc3)nc2)on1; class B
O=C(NC12CC3CC(CC(C3)C1)C2)c1cc(-c2ccc(-c3ccc(CN4CCOCC4)cc3)cc2)on1; class A
COc1ccc(-c2ccc(-c3cc(C(=O)NC45CC6CC(CC(C6)C4)C5)no3)cc2)cc1; class A

Ask | Tag the class for CC(=O)c1ccc(-c2ccc(-c3cc(C(=O)NC45CC6CC(CC(C6)C4)C5)no3)cc2)cc1
Reply | class A

Ask | Band of O=C(NC12CC3CC(CC(C3)C1)C2)c1cc(-c2ccc(-c3ccncc3)cc2)on1 ?
Reply | class A

Ask | Which category does the recorded inhibition put CC(=O)c1cccc(-c2ccc(-c3cc(C(=O)NC45CC6CC(CC(C6)C4)C5)no3)cn2)c1 in?
Reply | class B

Ask | Which bin, given its inhibition, does O=C(NC12CC3CC(CC(C3)C1)C2)c1cc(-c2ccc(-c3cccc(CN4CCOCC4)c3)cc2)on1 occupy?
Reply | class C

* * *

Test: Cytotoxicity against human HEK293 cells assessed as growth inhibition at 10 uM after 72 hrs by MTS assay relative to control
Format: cell-based
Conditions: read-out: GI
metric-name: inhibition at 72 h, 10 µM (%)
Please state the figure in %; there is no need to write the unit.

O=C(NC12CC3CC(CC(C3)C1)C2)c1cc(-c2ccc(-c3ccc(C(=O)N4CCOCC4)cc3)nc2)on1; 10
O=C(NC12CC3CC(CC(C3)C1)C2)c1cc(-c2ccc(-c3cccc(C(=O)N4CCOCC4)c3)cc2)on1; 54
NC(=O)c1cccc(-c2ccc(-c3cc(C(=O)NC45CC6CC(CC(C6)C4)C5)no3)cc2)c1; 3
NC(=O)c1cccc(-c2ccc(-c3cc(C(=O)NC45CC6CC(CC(C6)C4)C5)no3)cn2)c1; 1
O=C(NC12CC3CC(CC(C3)C1)C2)c1cc(-c2ccc(-c3ccc(CN4CCOCC4)cc3)cc2)on1; 20
COc1cc(-c2ccc(-c3cc(C(=O)NC45CC6CC(CC(C6)C4)C5)no3)cc2)cc(OC)c1OC; 32
O=C(NC12CC3CC(CC(C3)C1)C2)c1cc(-c2ccc(-c3ccc(C(=O)N4CCOCC4)cc3)cc2)on1; 23
COc1cccc(-c2ccc(-c3cc(C(=O)NC45CC6CC(CC(C6)C4)C5)no3)cc2)c1; 20

Ask | Consider the compound shown here: O=C(NC12CC3CC(CC(C3)C1)C2)c1cc(-c2ccc(-c3cccc(CN4CCOCC4)c3)cc2)on1 What is its recorded inhibition at 72 h, 10 µM?
Reply | 38

Ask | // returns reported inhibition at 72 h, 10 µM for input COc1ccc(-c2ccc(-c3cc(C(=O)NC45CC6CC(CC(C6)C4)C5)no3)cc2)cc1
Reply | 2

* * *

Biological target: Fatty-acid amide hydrolase 1 (Homo sapiens)
Assay: Inhibition of human recombinant FAAH expressed in sf21 cells using AMC-AA as substrate at 10 uM preincubated for 15 mins followed by substrate addition measured after 2 hrs by spectrophotometric analysis relative to control
inhibition vs 20%: at or above is Met, below is Not met.

Ask | I'd appreciate it if you could say whether CN1CCN(C(=O)c2cccc(-c3ccc(-c4cc(C(=O)NC56CC7CC(CC(C7)C5)C6)no4)cc3)c2)CC1 has inhibition at least equal to 20%.
Reply | Met

Ask | Hello, I need to know if CN1CCN(C(=O)c2ccc(-c3ccc(-c4cc(C(=O)NC56CC7CC(CC(C7)C5)C6)no4)cn3)cc2)CC1 has measured inhibition not below 20%. Thanks!
Reply | Not met

Ask | Check this molecule for inhibition at or above 20%: NC(=O)c1cccc(-c2ccc(-c3cc(C(=O)NC45CC6CC(CC(C6)C4)C5)no3)cc2)c1
Reply | Not met

* * *

Test: Cytotoxicity against human HEK293 cells assessed as growth inhibition at 10 uM after 72 hrs by MTS assay relative to control
Type: cell-based
Conditions: read-out: GI
metric-name: inhibition at 72 h, 10 µM (%)
Field format: number, assumed %, no unit text.

For orientation, consider the following solved cases.
O=C(NC12CC3CC(CC(C3)C1)C2)c1cc(-c2ccc(-c3ccc4c(c3)OCO4)cc2)on1; 9
CC(=O)c1cccc(-c2ccc(-c3cc(C(=O)NC45CC6CC(CC(C6)C4)C5)no3)cc2)c1; 16
N#Cc1cccc(-c2ccc(-c3cc(C(=O)NC45CC6CC(CC(C6)C4)C5)no3)cc2)c1; 0
O=C(NC12CC3CC(CC(C3)C1)C2)c1cc(-c2ccc(-c3ccncc3)nc2)on1; 1
COc1ccc(-c2ccc(-c3cc(C(=O)NC45CC6CC(CC(C6)C4)C5)no3)cc2)cc1OC; 29

Proceeding to the next compound to report its inhibition at 72 h, 10 µM.
Ask | Record request: inhibition at 72 h, 10 µM value, item CN1CCN(Cc2cccc(-c3ccc(-c4cc(C(=O)NC56CC7CC(CC(C7)C5)C6)no4)cc3)c2)CC1
Reply | 93

* * *

Target: UniProt O00519
Test: Inhibition of human recombinant FAAH expressed in sf21 cells using AMC-AA as substrate at 10 uM preincubated for 15 mins followed by substrate addition measured after 2 hrs by spectrophotometric analysis relative to control
Here, each record is paired with measured inhibition data.
Form entry: value (%) — number only.

Ask | Give its inhibition value. Item: NC(=O)c1cccc(-c2ccc(-c3cc(C(=O)NC45CC6CC(CC(C6)C4)C5)no3)cn2)c1
Reply | 20

Ask | What value of inhibition has been recorded for this entry: O=C(NC12CC3CC(CC(C3)C1)C2)c1cc(-c2ccc(-c3cccc(C(=O)N4CCOCC4)c3)cc2)on1
Reply | 49

Ask | What does the record list as inhibition for O=C(NC12CC3CC(CC(C3)C1)C2)c1cc(-c2ccc(-c3ccc(C(=O)N4CCOCC4)cc3)nc2)on1 ?
Reply | 12

Ask | What does the data say about its inhibition? Entry: NC(=O)c1cccc(-c2cccc(OC(=O)NC3CCCCC3)c2)c1
Reply | 98

* * *

Experiment: Cytotoxicity against human HEK293 cells assessed as growth inhibition at 10 uM after 72 hrs by MTS assay relative to control
Assay type: cell-based
Settings: read-out: GI
Decision: inhibition at 72 h, 10 µM >= 10% yields yes (1), all other cases yield no (0).

Some entries whose results are on file:
CC(=O)c1ccc(-c2ccc(-c3cc(C(=O)NC45CC6CC(CC(C6)C4)C5)no3)cc2)cc1; no (0)
CN1CCN(C(=O)c2cccc(-c3ccc(-c4cc(C(=O)NC56CC7CC(CC(C7)C5)C6)no4)cc3)c2)CC1; yes (1)
CN1CCN(C(=O)c2ccc(-c3ccc(-c4cc(C(=O)NC56CC7CC(CC(C7)C5)C6)no4)cn3)cc2)CC1; no (0)
CN1CCN(C(=O)c2ccc(-c3ccc(-c4cc(C(=O)NC56CC7CC(CC(C7)C5)C6)no4)cc3)cc2)CC1; yes (1)
NC(=O)c1ccc(-c2ccc(-c3cc(C(=O)NC45CC6CC(CC(C6)C4)C5)no3)cc2)cc1; no (0)
CC(=O)c1ccc(-c2ccc(-c3cc(C(=O)NC45CC6CC(CC(C6)C4)C5)no3)cn2)cc1; no (0)

// next entry
Ask | Decide: is the reported value of inhibition at 72 h, 10 µM for O=C(NC12CC3CC(CC(C3)C1)C2)c1cc(-c2ccc(-c3ccccc3)nc2)on1 equal to or greater than 10%?
Reply | yes (1)
